- Test system: biotinyl-Phe-oxazolone
- test: self-aminoacylation, catalytic enhancement (BFO) (fold over background); higher = more active; k-Seq, kA / k0A0; sequences stand for … in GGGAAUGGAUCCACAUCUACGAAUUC…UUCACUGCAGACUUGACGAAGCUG
Fewer inactive variants are shown than the library holds.

- residueCodes: "GUACUUCACACAAUCGGUCUG [Fam1A.1 aminoacylation ribozyme variant]"
  self-aminoacylation: 1.5
- residueCodes: "AUUCGCCUAGGUCAUCGAGUG [Fam2.2 aminoacylation ribozyme variant]"
  self-aminoacylation: 29.3
- residueCodes: "AUUCACCUAGGUCAGCCGGUG [Fam2.2 aminoacylation ribozyme variant]"
  self-aminoacylation: 61.6
- residueCodes: "CCACACGUCAUGCAAUCGGUC [Fam1B.1 aminoacylation ribozyme variant]"
  self-aminoacylation: 0.974
- residueCodes: "AAGUUUGCUAAUCGACGCAAG [Fam3.1 aminoacylation ribozyme variant]"
  self-aminoacylation: 0.783
- residueCodes: "AUUACACUGGUCAUCGAGGGA [Fam2.1 aminoacylation ribozyme variant]"
  self-aminoacylation: 0.709
- residueCodes: "AAGUUUGAUAAUAGUCUCAAG [Fam3.1 aminoacylation ribozyme variant]"
  self-aminoacylation: 1.46
- residueCodes: "AAGUUUGCUAAUAGUCGCUCG [Fam3.1 aminoacylation ribozyme variant]"
  self-aminoacylation: 0.809
- residueCodes: "UAGUUAGCUAAUAGUCGCAAG [Fam3.1 aminoacylation ribozyme variant]"
  self-aminoacylation: 2.37
- residueCodes: "AUUCACCUAGGUCAUCAGCUG [Fam2.2 aminoacylation ribozyme variant]"
  self-aminoacylation: 0.631
- residueCodes: "AUUAUCCUGGUCAUCGAGUAA [Fam2.1 aminoacylation ribozyme variant]"
  self-aminoacylation: 2.69
- residueCodes: "GCACACUUCGAGCAAUCGGUC [Fam1B.1 aminoacylation ribozyme variant]"
  self-aminoacylation: 2.2
- residueCodes: "CUACUUUAAACAAUCGGUUUG [Fam1A.1 aminoacylation ribozyme variant]"
  self-aminoacylation: 0.922
- residueCodes: "CUACUUUAAGCAAUCGGUCUG [Fam1A.1 aminoacylation ribozyme variant]"
  self-aminoacylation: 0.5
- residueCodes: "GAGUUUACUAAUAGUCGCAAG [Fam3.1 aminoacylation ribozyme variant]"
  self-aminoacylation: 3.13
- residueCodes: "AAGUUUGCUGAUAGUCGCGAG [Fam3.1 aminoacylation ribozyme variant]"
  self-aminoacylation: 6.95
- residueCodes: "AUUCACCUAGUCCAUCGGGUG [Fam2.2 aminoacylation ribozyme variant]"
  self-aminoacylation: 40.5
- residueCodes: "AAGUUUGCUAAUAGUUGCAAU [Fam3.1 aminoacylation ribozyme variant]"
  self-aminoacylation: 1.25
- residueCodes: "CCACACUUAAACCAAUCGGUC [Fam1B.1 aminoacylation ribozyme variant]"
  self-aminoacylation: 1.19
- residueCodes: "AUGCACCUAGGUCAUCGCGUG [Fam2.2 aminoacylation ribozyme variant]"
  self-aminoacylation: 56
- residueCodes: "AAUACCCUGGUCAUCGGGUGA [Fam2.1 aminoacylation ribozyme variant]"
  self-aminoacylation: 77.3
- residueCodes: "AUUACCCUGGACAUCGAGUUA [Fam2.1 aminoacylation ribozyme variant]"
  self-aminoacylation: 0.728
- residueCodes: "AUUCACCUAGGUCUACGGGUG [Fam2.2 aminoacylation ribozyme variant]"
  self-aminoacylation: 27.6
- residueCodes: "UUGCUUCAAACAAUCGGUCUG [Fam1A.1 aminoacylation ribozyme variant]"
  self-aminoacylation: 147
- residueCodes: "AAGUUGGCUAAUAGUCGCAGG [Fam3.1 aminoacylation ribozyme variant]"
  self-aminoacylation: 3.81
- residueCodes: "AUUCACCUAGGGCAUCGGGUA [Fam2.2 aminoacylation ribozyme variant]"
  self-aminoacylation: 2.02
- residueCodes: "AAGUUUGCGAAGAGUCGCAAG [Fam3.1 aminoacylation ribozyme variant]"
  self-aminoacylation: 1.49
- residueCodes: "CCACACUUCACGUAAUCGGUC [Fam1B.1 aminoacylation ribozyme variant]"
  self-aminoacylation: 0.967
- residueCodes: "CUACUUGAAACACUCGGUCUG [Fam1A.1 aminoacylation ribozyme variant]"
  self-aminoacylation: 3.53
- residueCodes: "CUACUGCAUACAAUCGGUCUG [Fam1A.1 aminoacylation ribozyme variant]"
  self-aminoacylation: 0.959
- residueCodes: "AAGUUUGCUGAUAGUCGCAAA [Fam3.1 aminoacylation ribozyme variant]"
  self-aminoacylation: 3.33
- residueCodes: "CUAGUUCAAAAAAUCGGUCUG [Fam1A.1 aminoacylation ribozyme variant]"
  self-aminoacylation: 2.72
- residueCodes: "AUUCACCUAAGUCAUCGGAUG [Fam2.2 aminoacylation ribozyme variant]"
  self-aminoacylation: 0.343
- residueCodes: "AUUCACCUAACUCAUCGGGUG [Fam2.2 aminoacylation ribozyme variant]"
  self-aminoacylation: 22.8
- residueCodes: "UUACUUCAAACAAUCGGUCGG [Fam1A.1 aminoacylation ribozyme variant]"
  self-aminoacylation: 18.1
